Test system: Mus musculus
Experiment: Tested for the maximum possible analgesic effect of epibatidine after 30 min in mouse tail-flick assay at subcutaneous dosage of 10 ug/kg
Assay type: functional
A collection of compounds and their measured Max possible effect
I only need the number, in %, no unit after it.

Before answering, review these 3 worked examples.
compound	outcome measure	value measured
Clc1ccc(C2CC3CCC2N3)cn1 (racemic) [EPIBATIDINE]	Max possible effect	5
Clc1ccc(C2CC3CCC2N3)cn1 (stereo in doubt; d-1) [EPIBATIDINE]	Max possible effect	3
CN1C2CCC1C(c1ccc(Cl)nc1)C2 (centres undefined)	Max possible effect	8

Turning now to a further compound:
Query string: Max possible effect of Clc1ccc(C2CC3CCC2N3)cn1 (stereo in doubt; l-1) [EPIBATIDINE] on Mus musculus?
Result string: 1

* * *

Tested on: Mus musculus
Experiment: Tested for the maximum possible analgesic effect of epibatidine after 15 min in mouse tail-flick assay at subcutaneous dosage of 10 ug/kg
Format: functional
outcome measure: Max possible effect (%)
API: value field is a number in %; no unit string.

Here are 3 molecules together with their reported answers.
molecule	Max possible effect [%]
Clc1ccc(C2CC3CCC2N3)cn1 (stereo in doubt; l-1) [EPIBATIDINE]	46
Clc1ccc(C2CC3CCC2N3)cn1 (racemic) [EPIBATIDINE]	23
CN1C2CCC1C(c1ccc(Cl)nc1)C2 (centres undefined)	16

# ---- query molecule ----
Query string: Look up Max possible effect for this molecule: Clc1ccc(C2CC3CCC2N3)cn1 (stereo in doubt; d-1) [EPIBATIDINE]
Result string: 32
